- EXPERIMENT_SUMMARY: Lipophilicity by experimental HPLC retention time
- Assay type: physicochemical
- EXPERIMENTAL_SETUP: HPLC retention time as measure of lipophilicity; C18, 10 to 90% CH3CN/H2O with 0.1% FA over 25 min
Some compounds, each annotated with its measured HPLC.
READOUT_KIND: HPLC (min)

{"COMPOUND": "CC[C@H](C)[C@H]1C(=O)NC[C@@H](NC(=O)c2nc3ccccc3cc2O)C(=O)N2CCCC[C@H]2C(=O)NCC(=O)N(C)CC(=O)N(C)[C@@H]([C@@H](C)CC)C(=O)O[C@H](C)[C@@H](NC(=O)c2nc3ccccc3cc2O)C(=O)N2CCCC[C@H]2C(=O)NCC(=O)N(C)CC(=O)N1C [Compound 30]", "READOUT_KIND": "HPLC", "READING": 20.9}
{"COMPOUND": "CC(C)[C@H]1C(=O)NC[C@@H](NC(=O)c2nc3ccccc3cc2O)C(=O)N2CCCC[C@H]2C(=O)NCC(=O)N(C)CC(=O)N(C)[C@@H](c2ccccc2)C(=O)NC[C@@H](NC(=O)c2nc3ccccc3cc2O)C(=O)N2CCCC[C@H]2C(=O)NCC(=O)N(C)CC(=O)N1C [Compound 103]", "READOUT_KIND": "HPLC", "READING": 17.2}

---

- EXPERIMENT_SUMMARY: Lipophilicity by experimental HPLC retention time
- Assay type: physicochemical
- EXPERIMENTAL_SETUP: HPLC retention time as measure of lipophilicity; C18, 10 to 90% CH3CN/H2O with 0.1% FA over 25 min
READOUT_KIND: HPLC (min)

{"COMPOUND": "CC(C)[C@H]1COC[C@@H](NC(=O)c2nc3ccccc3cc2O)C(=O)N2CCCC[C@H]2C(=O)NCC(=O)N(C)CC(=O)N(C)[C@@H](C(C)C)C(=O)OC[C@@H](NC(=O)c2nc3ccccc3cc2O)C(=O)N2CCCC[C@H]2C(=O)NCC(=O)N(C)CC(=O)N1C [Compound 203]", "READOUT_KIND": "HPLC", "READING": 20.2}
{"COMPOUND": "CCN1C(=O)CN(C)C(=O)CNC(=O)[C@@H]2CCCCN2C(=O)[C@H](NC(=O)c2nc3ccccc3cc2O)CNC(=O)[C@H](C(C)C)N(CC)C(=O)CN(C)C(=O)CNC(=O)[C@@H]2CCCCN2C(=O)[C@H](NC(=O)c2nc3ccccc3cc2O)CNC(=O)[C@@H]1C(C)C [Compound 147]", "READOUT_KIND": "HPLC", "READING": 17.9}
{"COMPOUND": "CCN1CC(=O)N(C)[C@@H](C(C)C)C(=O)NC[C@@H](NC(=O)c2nc3ccccc3cc2O)C(=O)N2CCCC[C@H]2C(=O)NCC(=O)N(CC)CC(=O)N(C)[C@@H](C(C)C)C(=O)NC[C@@H](NC(=O)c2nc3ccccc3cc2O)C(=O)N2CCCC[C@H]2C(=O)NCC1=O [Compound 132]", "READOUT_KIND": "HPLC", "READING": 18.5}
{"COMPOUND": "CC(C)[C@H]1C(=O)NC[C@@H](NC(=O)c2nc3ccccc3cc2O)C(=O)N2CCCC[C@H]2C(=O)NCC(=O)N(C)CC(=O)N(C)[C@@H](C(C)C)C(=O)OC[C@@H](NC(=O)c2nc3ccccc3cc2O)C(=O)N2CCCC[C@H]2C(=O)NCC(=O)N(C)CC(=O)N1C [Compound 14]", "READOUT_KIND": "HPLC", "READING": 19.6}

---

- EXPERIMENT_SUMMARY: Lipophilicity by experimental HPLC retention time
- Assay type: physicochemical
- EXPERIMENTAL_SETUP: HPLC retention time as measure of lipophilicity; C18, 10 to 90% CH3CN/H2O with 0.1% FA over 25 min

{"COMPOUND": "CC(C)[C@H]1C(=O)NC[C@@H](NC(=O)c2nc3ccccc3cc2O)C(=O)N2CCCC[C@H]2C(=O)NCC(=O)N(C)CC(=O)N(C)[C@@H](C2CCCCC2)C(=O)NC[C@@H](NC(=O)c2nc3ccccc3cc2O)C(=O)N2CCCC[C@H]2C(=O)NCC(=O)N(C)CC(=O)N1C [Compound 97]", "HPLC, min": 18.9}
{"COMPOUND": "CC(C)[C@H]1C(=O)O[C@H](C)[C@@H](NC(=O)c2nc3ccccc3cc2O)C(=O)N2CCCC[C@H]2C(=O)NCC(=O)N(C)CC(=O)N(C)[C@@H](C(C)C)C(=O)O[C@H](C)[C@@H](NC(=O)c2nc3ccccc3cc2O)C(=O)N2CCCC[C@H]2C(=O)NCC(=O)N(C)CC(=O)N1C [Compound 22]", "HPLC, min": 21.6}
{"COMPOUND": "CN1CC(=O)N2CCCC[C@H]2COC[C@@H](NC(=O)c2nc3ccccc3cc2O)C(=O)N2CCCC[C@H]2C(=O)NCC(=O)N(C)CC(=O)N2CCCC[C@H]2C(=O)NC[C@@H](NC(=O)c2nc3ccccc3cc2O)C(=O)N2CCCC[C@H]2C(=O)NCC1=O [Compound 187]", "HPLC, min": 16.6}
{"COMPOUND": "CC(C)[C@H]1C(=O)OC[C@@H](NC(=O)c2nc3ccccc3cc2O)C(=O)N2CCCC[C@H]2C(=O)NCC(=O)N(C)CC(=O)N(C)[C@@H](C(C)C)C(=O)OC[C@@H](NC(=O)c2nc3ccccc3cc2O)C(=O)N2CCCC[C@H]2C(=O)NCC(=O)N(C)CC(=O)N1C [Sandramycin, reference compound]", "HPLC, min": 21.6}

---

- EXPERIMENT_SUMMARY: Lipophilicity by experimental HPLC retention time
- Type: physicochemical
- EXPERIMENTAL_SETUP: HPLC retention time as measure of lipophilicity; C18, 10 to 90% CH3CN/H2O with 0.1% FA over 25 min
Where a SMILES comes first, the peptide text is derived from it. Bridges are numbered along the chain shown (N, C = ends). Roman numbers before positions name the chains, in order. [ ]: non-standard residue; d: D form. The star is where a group is joined. Quinaldoyl(3-OH) = O=C(c1nc2ccccc2cc1O)*; Pip = O=C(O)[C@@H]1CCCCN1; dDap = NC[C@@H](N)C(=O)O; Sar = CNCC(=O)O
Some compounds, each annotated with its measured HPLC.

{"COMPOUND": "CC(C)[C@H]1C(=O)NC[C@@H](NC(=O)c2nc3ccccc3cc2O)C(=O)N2CCCC[C@H]2C(=O)NCC(=O)N(C)CC(=O)N2CCCC[C@H]2C(=O)NC[C@@H](NC(=O)c2nc3ccccc3cc2O)C(=O)N2CCCC[C@H]2C(=O)NCC(=O)N(C)CC(=O)N1C", "UNIT_TEXT": "min", "HPLC": 16.4}
{"COMPOUND": "CC(C)[C@@H]1NC(=O)CN(C)C(=O)CNC(=O)[C@@H]2CCCCN2C(=O)[C@H](NC(=O)c2nc3ccccc3cc2O)CNC(=O)[C@H](C(C)C)NC(=O)CN(C)C(=O)CNC(=O)[C@@H]2CCCCN2C(=O)[C@H](NC(=O)c2nc3ccccc3cc2O)CNC1=O [Compound 152] (I: {Quinaldoyl(3-OH)}-[dDap][Pip]G[Sar]V / II: {Quinaldoyl(3-OH)}-[dDap][Pip]G[Sar]V; amide I:1-II:C, I:C-II:1)", "UNIT_TEXT": "min", "HPLC": 14.6}
{"COMPOUND": "CN1CC(=O)N2CCCCC[C@H]2C(=O)NC[C@@H](NC(=O)c2nc3ccccc3cc2O)C(=O)N2CCCC[C@H]2C(=O)NCC(=O)N(C)CC(=O)N2CCCCC[C@H]2C(=O)NC[C@@H](NC(=O)c2nc3ccccc3cc2O)C(=O)N2CCCC[C@H]2C(=O)NCC1=O", "UNIT_TEXT": "min", "HPLC": 15.8}

Reference source: patent US20240376154A1
